These data points were gathered from PubChem BioAssay (NCATS).

- experiment: Quantitative High-Throughput drug screen in 47 multiple myeloma cell lines against the NCATS MIPE library collection: KMS12PE_JCRB cell viability assay (AID 1918972);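 also: 100% = DMSO only wells and 0% = wells with media alone; nearly all actives have a fitted effect of over 30% in size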
- conditions: KMS12PE myeloma viability, CellTiter-Glo ATP, 48 h; series mostly up to 45.8 µM
Inconclusive results are not listed. Calls of active or inactive are those of the source. Calls follow the shape of the dose curve; as a rule, active = well fitted cell-killing curve with a large enough effect; inconclusive = small, poorly fitted or top-dose-only effect, or effect the other way; inactive = no such curve, though single readings can be large or run the other way.
Answer with one of the outcomes given here: active, inactive

compound=CC(C)c1ccc2oc3nc(N)c(C(=O)O)cc3c(=O)c2c1 labelclass=inactive
compound="O=C1c2c(O)cc(O)cc2OC(c2ccc(O)c(O)c2)C1O (centres undefined)" labelclass=inactive
compound="CN(C)CCCC1(c2ccc(F)cc2)OCc2cc(C#N)ccc21 (centres undefined)" labelclass=inactive
compound=NNc1nncc2ccccc12 labelclass=inactive

Note: attention shifts to another entry.
Query block: Tell me the assay call for COC(=O)C1=C(C)NC(C)=C(C(=O)OC(C)C)C1c1cccc2nonc12 (centres undefined) please.
Result block: inactive

---

- experiment: Quantitative High-Throughput drug screen in 47 multiple myeloma cell lines against the NCATS MIPE library collection: KMS28PE_JCRB cell viability assay (AID 1918983); also: nearly all actives have a fitted effect of over 35% in size
- conditions: KMS28PE multiple myeloma viability, CellTiter-Glo ATP, 48 h; series mostly up to 45.8 µM
Records with an inconclusive call do not appear. Active and inactive are the calls of the source. The call rests on the fitted dose curve; in most records, active means well fitted cell-killing curve with a large enough effect; inconclusive means small, poorly fitted or top-dose-only effect, or effect the other way; inactive means no such curve, though single readings can be large or run the other way.
Answer with one of the outcomes given here: active, inactive

compound=O=C(O)c1cc(=O)c2c(OCC(O)COc3cccc4oc(C(=O)O)cc(=O)c34)cccc2o1 labelclass=inactive
compound=Cc1cccc(C)c1OCC(=O)N[C@@H](Cc1ccccc1)[C@@H](O)C[C@H](Cc1ccccc1)NC(=O)[C@H](C(C)C)N1CCCNC1=O labelclass=active

Query block: Tell me the assay call for CCCc1cc(=O)[nH]c(=S)[nH]1 please.
Result block: inactive

Query block: Tell me the assay call for CC(C)[C@H](N)C(=O)OCCOCn1cnc2c(=O)[nH]c(N)nc21 please.
Result block: active

Query block: Tell me the assay call for COc1c(O)cc2c(c1O)[C@@H]1O[C@H](CO)[C@@H](O)[C@H](O)[C@H]1OC2=O please.
Result block: inactive

Query block: Tell me the assay call for O=C(NCCO[N+](=O)[O-])c1cccnc1 please.
Result block: inactive

Query block: Tell me the assay call for CC(C)c1ccc2oc3nc(N)c(C(=O)O)cc3c(=O)c2c1 please.
Result block: inactive

Query block: Tell me the assay call for Cc1ccc(NC(=O)c2ccc(CN3CCN(C)CC3)cc2)cc1Nc1nccc(-c2cccnc2)n1 please.
Result block: inactive

Query block: Tell me the assay call for O=c1cc(N2CCOCC2)oc2c(-c3ccccc3)cccc12 please.
Result block: active

Query block: Tell me the assay call for CCN(CC)CCOc1ccc(Cc2ccccc2)cc1 please.
Result block: active

Query block: Tell me the assay call for CCC1=C(C)CN(C(=O)NCCc2ccc(S(=O)(=O)NC(=O)NC3CCC(C)CC3)cc2)C1=O (centres undefined) please.
Result block: inactive

Query block: Tell me the assay call for NS(=O)(=O)c1cc(C(=O)O)c(NCc2ccco2)cc1Cl please.
Result block: inactive

Query block: Tell me the assay call for Cc1cccc(C#Cc2ccccc2)n1 please.
Result block: inactive

Query block: Tell me the assay call for COc1cc(Nc2c(C#N)cnc3cc(OCCCN4CCN(C)CC4)c(OC)cc23)c(Cl)cc1Cl please.
Result block: active

Query block: Tell me the assay call for COCCCN1CCC(NC(=O)c2cc(Cl)c(N)c3c2OCC3)CC1 please.
Result block: inactive

Query block: Tell me the assay call for NNc1nncc2ccccc12 please.
Result block: inactive

---

- experiment: qHTS drug screen for cell cycle checkpoint inhibitors in PARPi-resistant BRCA-mutant ovarian cancer cell lines. (AID 1963452)
- conditions: PEO1/OlaR viability, CellTiter-Glo luminescence, 96 h; measured here: PEO4 Z-AUC; stronger effect = lower value
assayEndpoint: Z-AUC
I only need the number, thanks.

Sample answers from the record:
compound="Cc1c(OCC(F)(F)F)ccnc1CS(=O)c1nc2ccccc2[nH]1 (stereo unspecified)" testvalue=0.798
compound=Cc1cc(O)c2c(c1)C(=O)c1cc(O)cc(O)c1C2=O testvalue=0.55
compound="CCC(C)(Oc1ccc(C2(c3ccc(OC(C)(CC)C(=O)O)cc3)CCCCC2)cc1)C(=O)O (stereo unspecified)" testvalue=0.795
compound="C[Se]CCC(N)C(=O)O (stereo unspecified)" testvalue=1.31
compound=CCCc1cc(=O)[nH]c(=S)[nH]1 testvalue=0.119

Could you now consider this next compound?
Query block: // query Z-AUC value for entry COC(=O)C1=C(C)NC(C)=C(C(=O)OCCCN2CCC(c3ccccc3)(c3ccccc3)CC2)C1c1cccc([N+](=O)[O-])c1 (stereo unspecified)
Result block: 0.403

---

- experiment: qHTS of pediatric cancer cell lines to identify multiple opportunities for drug repurposing: Confirmatory screen for SJ-GBM2 cells (AID 1347116);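 also: 48 hour compound exposure; nearly all actives have a fitted effect of over 60% in size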
- conditions: SJ-GBM2 glioblastoma cells, viability; series mostly up to 45.9 µM
Records with an inconclusive call do not appear. Active and inactive are the calls of the source. Calls follow the shape of the dose curve; as a rule, active = well fitted cell-killing curve with a large enough effect; inconclusive = small, poorly fitted or top-dose-only effect, or effect the other way; inactive = no such curve, though single readings can be large or run the other way.
Answer with one of the outcomes given here: 1 for active, -1 for inactive

compound=CCOc1cc(CC(=O)N[C@@H](CC(C)C)c2ccccc2N2CCCCC2)ccc1C(=O)O labelclass=-1
compound=CN(C)c1ccc2nc3ccc(=[N+](C)C)cc-3sc2c1 labelclass=1
compound="O=C1c2c(O)cc(O)cc2OC(c2ccc(O)c(O)c2)C1O (stereo not given)" labelclass=-1
compound=CC(C)C[C@H](NC(=O)[C@H](Cc1ccccc1)NC(=O)c1cnccn1)B(O)O labelclass=1

Note: attention shifts to another entry.
Query block: Tell me the assay call for Cc1nc(Nc2ncc(C(=O)Nc3c(C)cccc3Cl)s2)cc(N2CCN(CCO)CC2)n1 please.
Result block: -1

---

- System: DFO2036
- experiment: qHTS profiling for inhibitors of Plasmodium falciparum proliferation (AID 504749); also: nearly all actives have a fitted effect of over 60% in size; also: potency is read from the fitted curve at half-maximal effect
- conditions: P. falciparum in erythrocytes, SYBR Green DNA, 72 h; series mostly up to 28.7 µM
- Protocol: NIH National Institute of Allergy and Infectious Diseases [NIAID] NIH Chemical Genomics Center [NCGC] […] Because mature erythrocytes lack DNA, only Plasmodium-derived DNA is detected. NCGC Assay Protocol Summary: The SYBR Green viability assay was adapted from a method described previously (Plouffe et al., 2008). […] The following morning, fluorescence intensity at 485(14) nm excitation and 535(25) nm emission wavelengths was measured on an EnVision (Perkin Elmer) plate reader. […]
Records with an inconclusive call do not appear. The source made the active and inactive calls. The call rests on the fitted dose curve; in most records, active means well fitted inhibition curve with a large enough effect; inconclusive means small, poorly fitted or top-dose-only effect; inactive means flat fitted curve, though single readings scatter.
assayEndpoint: Potency

Sample answers from the record:
molecule=CC(C)(S)[C@@H](N)C(=O)O testvalue=inactive
molecule=Cc1cccc(C)c1OCC(=O)N[C@@H](Cc1ccccc1)[C@@H](O)C[C@H](Cc1ccccc1)NC(=O)[C@H](C(C)C)N1CCCNC1=O testvalue="3.98 µM (active)"
molecule=CC(C)c1ccc2oc3nc(N)c(C(=O)O)cc3c(=O)c2c1 testvalue=inactive
molecule=CN1C(C(=O)Nc2ccccn2)=C(O)c2sccc2S1(=O)=O testvalue=inactive
molecule="COC(=O)C1=C(C)NC(C)=C(C(=O)OCCCN2CCC(c3ccccc3)(c3ccccc3)CC2)C1c1cccc([N+](=O)[O-])c1 (stereo not drawn)" testvalue="7.94 µM (active)"
molecule=Cn1c(NCCN(CCO)CCCc2ccc([N+](=O)[O-])cc2)cc(=O)n(C)c1=O testvalue=inactive
molecule=CNC[C@H](O)c1ccc(O)c(O)c1 testvalue=inactive

Could you now consider this next molecule?
Query block: // query Potency value for entry C[Se]CCC(N)C(=O)O (stereo not drawn)
Result block: inactive

---

- experiment: qHTS assay for measurement of the activity of small molecule inhibitors on Zika virus induced Caspase-3 activity in human iPSC derived neural progenitor cells (hNPCs) (AID 1224857); also: % of control where 0% means no effect; nearly all actives have a fitted effect of over 65% in size
- conditions: hNPCs ZIKV-induced caspase-3/7, Caspase-Glo luminescence, 6 h; series mostly up to 45.7 µM
Inconclusive results are not listed. Activity calls are given as the source filed them. Calls come from the whole dose curve; as a rule, active = well fitted inhibition curve with a large enough effect; inconclusive = small, poorly fitted or top-dose-only effect; inactive = no such curve, though single readings can be large or run the other way. Peptide text beside a SMILES is read from it.
Answer with one of the outcomes given here: yes = active, no = inactive

Query block: Tell me the assay call for Cc1cc(Cl)ccc1OCCCC(=O)NO please.
Result block: no

Query block: Tell me the assay call for COCCCN1CCC(NC(=O)c2cc(Cl)c(N)c3c2OCC3)CC1 please.
Result block: no

Query block: Tell me the assay call for COc1ccccc1N1CCN(CCN(C(=O)C2CCCCC2)c2ccccn2)CC1 please.
Result block: no

Query block: Tell me the assay call for COC(=O)[C@H](Cc1ccccc1)NC(=O)[C@@H](N)CC(=O)O (H-Asp-Phe-OMe) please.
Result block: no

Query block: Tell me the assay call for COc1cc2c(N3CCN(C(=O)Nc4ccc(OC(C)C)cc4)CC3)ncnc2cc1OCCCN1CCCCC1 please.
Result block: no

Query block: Tell me the assay call for CCc1nc(N)nc(N)c1-c1ccc(Cl)cc1 please.
Result block: no

Query block: Tell me the assay call for O=c1ccc2ccc(O)c(O)c2o1 please.
Result block: no

Query block: Tell me the assay call for COc1ccc2cc([C@H](C)C(=O)O)ccc2c1 please.
Result block: no
